Below, each entry is listed alongside its reported TGI.
# Tested on: OVCAR-8 ovarian
# METHOD SUMMARY: NCI tumour cell line growth inhibition, 48 h

Example entries begin here.
- MOLECULE: "COC(=O)c1ccc2c(c1)C(=O)c1c-2n(CCCN)c(=O)c2cc([N+](=O)[O-])ccc12"
  TGI: "0.864 µM"
- MOLECULE: "O=C1CSC(c2ccc(Cl)cc2)N1c1ccc(-c2ccc(-n3c(-c4ccccc4)nc4ccccc4c3=O)cc2)cc1 (centres undefined)"
  TGI: "> 100 µM"
- MOLECULE: "C[C@H]1CCCCC[C@@H]2CC(=O)CC2C(=O)CCC(=O)O1 (some centres undefined)"
  TGI: "> 100 µM"
- MOLECULE: "CC[C@H](C)C1=C(O)[N@+]2([O-])Oc3ccc(-c4c(O)c(O)c(-c5ccc(OC(C)=O)cc5)c(OC(C)=O)c4OC(C)=O)cc3O[C@]2([C@@H](C)CC)C(=O)N1O"
  TGI: "> 50 µM"
- MOLECULE: "Cc1ccccc1-c1c(N)nc(N)nc1C(=O)Nc1nccs1"
  TGI: "> 100 µM"
- MOLECULE: "C[C@H]1[C@H](C)CC[C@]2(C(=O)O)CC[C@]3(C)C(=CC[C@@H]4[C@@]5(C)CC[C@H](OC(=O)/C=C/c6ccc(O)cc6)C(C)(C)[C@@H]5CC[C@]43C)[C@H]12"
  TGI: "18.3 µM"
- MOLECULE: "CCCCCCCCCC1C(C)c2c([nH]c3ccccc23)C2C(=O)N(c3ccccc3)C(=O)C21 (centres undefined)"
  TGI: "> 100 µM"
- MOLECULE: "O=C1Nc2cc([N+](=O)[O-])ccc2C(=O)N2CCC[C@@H]12"
  TGI: "> 100 µM"

Request: For the molecule C/C=C/C(C#N)(Cc1ccccc1)OP1(=O)OC(c2ccccc2)C(C)N1C (centres undefined) , what TGI is on record?
Response: > 100 µM

Request: Name the recorded TGI for CC1(O)CC2(O)C=CC3=C(C(=O)c4cccc(O)c4C3=O)C2(O)C(=O)C1O (centres undefined) .
Response: 8.08 µM

Request: Can you share its TGI? I mean this molecule: COc1ccc2oc(=O)c3c(c2c1C)OC(C)(C)C=C3
Response: > 100 µM

Request: Request the reported TGI associated with Cc1ncc(C(=O)Nc2ccc(CN3CCN(C)CC3)c(C(F)(F)F)c2)cc1C#Cc1cnc(N)c2ncccc12
Response: 4.86 µM

Reference for the values: PubChem BioAssay (NCI)
